Source of measurements: the supplement of paper PMC10065799

Test system: c-Src
assay.notes: phosphorylation enrichment, bacterial display (enrichment ratio); higher = better substrate or ligand; peptides without Tyr show the background
Readings of phosphorylation enrichment for the listed sequences

Request: // query phosphorylation enrichment value for entry SFPSTYRYERG [INPPL1_Y661_P659S]
Result: 0.463

Request: // query phosphorylation enrichment value for entry ASLEAYCKHKY [RXRA_Y403]
Result: 0.411

Request: // query phosphorylation enrichment value for entry MNKNAYHNVTA [ST3GAL6_Y306]
Result: 0.331

Request: // query phosphorylation enrichment value for entry EKSREYHRLFE [PIK3R1_Y463_D464H_YF]
Result: 0.442

Request: // query phosphorylation enrichment value for entry ISGLKYPVSQQ [BTK_Y375_R372G]
Result: 0.407

Request: // query phosphorylation enrichment value for entry DLDTEYGSGYP [RNASEH2A_Y206_D205E]
Result: 0.549

Request: // query phosphorylation enrichment value for entry HAVFVCDICHV [TWNK_Y508_Y508C_YF]
Result: 0.807

Request: // query phosphorylation enrichment value for entry GYSRHCEDGYP [CTNND1_Y217_Y217C]
Result: 0.489

====

Test system: AncSZ
assay.notes: phosphorylation enrichment, bacterial display (enrichment ratio); higher = better substrate or ligand; peptides without Tyr show the background
parameter.measured: phosphorylation enrichment

GKTFTYRSVFF [ZNF80_Y200]; 0.809
ETDSEYVKLAK [C7orf57_Y70]; 0.934
QQLQGYIPSNF [FRK_Y99_YF]; 1.11
YLENYYDLKKD [MMP3_Y42]; 1.83
IFGVSYDEYRY [CFTR_Y512]; 0.932
VNTMLYEKFTY [TEK_Y1108_T1106M]; 1.23
KMTGRYEMYAR [UPB1_Y362]; 0.828
TTTQAYRVNER [PRKN_Y391_D394N]; 0.496

Now consider a different sequence.
Request: // query phosphorylation enrichment value for entry SRIWVYNHFRC [BRCA2_Y2621_W2626C_YF]
Result: 1.16

====

target: c-Src SH2
assay.notes: SH2 binding enrichment of the phosphorylated peptide, bacterial display (enrichment ratio); higher = better substrate or ligand; peptides without Tyr show the background
We'd kindly ask you to apply these SH2 binding enrichment classes: low interval: < 0.5; middle interval: ≥ 0.5 and < 1; high interval: ≥ 1

Please review the following examples before continuing.
RRIHSYRRHLW [VHL_Y112_G114R]; middle interval
VSTAVYKRFPS [BEST1_Y148]; low interval
FSAGTYPRLEE [SYCN_Y108]; high interval
KVPCHYDDPGK [FOXG1_Y246_R244C]; high interval
KLKEKYEKDIA [HMGB1_Y155]; middle interval
HEHVGYTTLNR [CHN1_Y148_Y143H]; high interval
SIKHKYVTALY [KCNH2_Y611_D609H]; low interval
SLGKGYYDGGC [MC4R_Y35_S36Y]; middle interval

Request: Dear colleague, I would appreciate it if you could identify the bin for IDSTPYRQWYE [RPS8_Y109] and reply at your convenience.
Result: middle interval

Request: Dear colleague, I would appreciate it if you could identify the bin for CTTIHQNFMCN [TP53_Y234_Y234Q_YF] and reply at your convenience.
Result: high interval

Request: Dear colleague, I would appreciate it if you could identify the bin for LADKPYTFEYY [FXN_Y118_D122Y] and reply at your convenience.
Result: high interval

Request: Dear colleague, I would appreciate it if you could identify the bin for MHDKEYFSVHN [MET_Y1234_Y1230H_YF] and reply at your convenience.
Result: middle interval

Request: Dear colleague, I would appreciate it if you could identify the bin for "TENAGYYFQVS" and reply at your convenience.
Result: middle interval

Request: Dear colleague, I would appreciate it if you could identify the bin for PLDGEYFTHQI [TP53_Y327_L330H] and reply at your convenience.
Result: low interval

Request: Dear colleague, I would appreciate it if you could identify the bin for WNDLDYMDSRR [GAA_Y407] and reply at your convenience.
Result: middle interval

Request: Dear colleague, I would appreciate it if you could identify the bin for NFDRVYIFHLR [MYOF_Y1137_YF] and reply at your convenience.
Result: high interval

Request: Dear colleague, I would appreciate it if you could identify the bin for QFNPEYVQQAS [LRRC7_Y1058_H1054Y_YF] and reply at your convenience.
Result: low interval

====

target: c-Src SH2;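 note: peptide library displayed on the E. coli surface as eCPX fusions, selected cells deep-sequenced, score is each peptide's frequency after selection divided by its frequency in the input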
assay.notes: SH2 binding enrichment of the phosphorylated peptide, bacterial display (enrichment ratio); higher = better substrate or ligand; peptides without Tyr show the background
Tag: met if measured SH2 binding enrichment is not below 0.7, not met if it is.

NKEAICSGYIR [SMCHD1_Y283_Y283C]; not met
PESIMYRKFTT [NTRK3_Y744]; not met
CFTGKYTLPPG [HSPB1_Y142_R140G]; not met
HSDYQYGQRSQ [PKP2_Y168_S169G]; not met
VGSIKYLKREW [KCNMA1_Y885_E884K]; met
RKETFYTLSCR [GUCY2C_Y681]; met
FDCKWYIPLTD [BCR_Y756_YF]; not met
ADKAAYLQSLN [MYH2_Y389]; not met

Request: Confirm if SH2 binding enrichment reported for the sequence EKLQQYIAPGM [EPHB3_Y600] is 0.7 or above.
Result: not met

Request: Confirm if SH2 binding enrichment reported for the sequence GRFCGYKSKHG [EPHA3_Y570] is 0.7 or above.
Result: met

Request: Confirm if SH2 binding enrichment reported for the sequence PSNTDYPGPHS [TP63_Y171] is 0.7 or above.
Result: not met

Request: Confirm if SH2 binding enrichment reported for the sequence PYRFIYMAVQH [PTPN11_Y515_Q510P] is 0.7 or above.
Result: met

Request: Confirm if SH2 binding enrichment reported for the sequence RPSGRYPVARR [SHANK3_Y1569] is 0.7 or above.
Result: not met

Request: Confirm if SH2 binding enrichment reported for the sequence HFMKLYEEKTG [PARP1_Y618] is 0.7 or above.
Result: not met

Request: Confirm if SH2 binding enrichment reported for the sequence TTSQLYDAVPI [PDPK1_Y9] is 0.7 or above.
Result: not met

Request: Confirm if SH2 binding enrichment reported for the sequence FMFKVYSDPQP [FGFR1_Y280_C277Y_YF] is 0.7 or above.
Result: not met

Request: Confirm if SH2 binding enrichment reported for the sequence KYLENYYDLKK [MMP3_Y41] is 0.7 or above.
Result: met

Request: Confirm if SH2 binding enrichment reported for the sequence LEITWYPFDVE [RIPOR2_Y316] is 0.7 or above.
Result: met

Request: Confirm if SH2 binding enrichment reported for the sequence KNNDGYIDFAE [MCFD2_Y135_YF] is 0.7 or above.
Result: met

Request: Confirm if SH2 binding enrichment reported for the sequence AVRFIYTIDGS [DCX_Y105_G100A_YF] is 0.7 or above.
Result: met

Request: Confirm if SH2 binding enrichment reported for the sequence RNGDRYFKGIV [DCX_Y64] is 0.7 or above.
Result: not met

Request: Confirm if SH2 binding enrichment reported for the sequence SRIWVYNHFRC [BRCA2_Y2621_W2626C_YF] is 0.7 or above.
Result: not met

Request: Confirm if SH2 binding enrichment reported for the sequence CTLLPYFSARV [DGKE_Y269_YF] is 0.7 or above.
Result: not met

Request: Confirm if SH2 binding enrichment reported for the sequence ISGLKYPVSQQ [BTK_Y375_R372G] is 0.7 or above.
Result: not met

Request: Confirm if SH2 binding enrichment reported for the sequence MNKNAYHNVTA [ST3GAL6_Y306] is 0.7 or above.
Result: met

Request: Confirm if SH2 binding enrichment reported for the sequence KMTGRYEMYAR [UPB1_Y362] is 0.7 or above.
Result: met

Request: Confirm if SH2 binding enrichment reported for the sequence TTSQPYRCLCS [USH2A_Y534] is 0.7 or above.
Result: not met

Request: Confirm if SH2 binding enrichment reported for the sequence ELELLYPDRNS [NYX_Y284_L285P] is 0.7 or above.
Result: not met

Request: Confirm if SH2 binding enrichment reported for the sequence YSTSPYLLEAA [BRIP1_Y921] is 0.7 or above.
Result: not met

Request: Confirm if SH2 binding enrichment reported for the sequence FDCGMYSHLQG [LGR4_Y848_YF] is 0.7 or above.
Result: met

====

Tested on: AncSZ
assay.notes: phosphorylation enrichment, bacterial display (enrichment ratio); higher = better substrate or ligand; peptides without Tyr show the background
parameter.measured: phosphorylation enrichment

Examples from the recorded data:
HAVVDYMRRQK [ATM_Y1915_L1910H]; 1.16
VDTPMYATMQR [TPO_Y55_A53P]; 0.826
LEITWYPFDVE [RIPOR2_Y316]; 1.49
DLDTEYGSGFP [RNASEH2A_Y206_D205E_YF]; 1.55
INSLKYAYNVS [EIF2B5_Y583_I587V]; 0.642
ERFAFYRDSPR [FOXE3_Y108]; 0.889

Request: // query phosphorylation enrichment value for entry VSTAVYKRFPS [BEST1_Y148]
Result: 0.512

Request: // query phosphorylation enrichment value for entry KWHREYNSKFV [RICTOR_Y835_YF]
Result: 0.556

Request: // query phosphorylation enrichment value for entry RETLTYAQAQG [BRD1_Y33_R38G]
Result: 0.579

Request: // query phosphorylation enrichment value for entry NFATLHLKIYH [PDE6B_Y219_Y219H]
Result: 1.16

Request: // query phosphorylation enrichment value for entry MMVGAYSSLEG [ECPAS_Y470_T472S]
Result: 0.631
